Could you please report measured 2:1, Tm average (Mpro) for the items listed next?
- Target desc: SARS-CoV-2 Mpro (Severe acute respiratory syndrome coronavirus 2, UniProt P0DTD1)
- Type: binding
- Conditions used: 2:1 compound to protein
Square brackets hold non-standard residues; d marks the D form. Peptide text beside a SMILES is read from it. * marks the point of attachment. Nle = CCCC[C@H](N)C(=O)O; Cbz = O=C(OCc1ccccc1)*
Answers are plain numbers, in °C.

Compound	Parameter	Observed result
CCOC(=O)[C@H]1O[C@@H]1C(=O)N[C@@H](CC(C)C)C(=O)NCCC(C)C [E-64d]	2:1, Tm average (Mpro)	54.7

Return reported 2:1, Tm average (Mpro) values for all items listed beneath this line.
1. CC(C)(C)OC(=O)Nc1cccn([C@@H](CC2CC2)C(=O)N[C@@H](C[C@@H]2CCNC2=O)C(=O)C(=O)NCc2ccccc2)c1=O [13b]
2. CCCC[C@@H](C=O)NC(=O)[C@H](CC(C)C)NC(=O)[C@H](CC(C)C)NC(C)=O [MG-101, Acetyl-Leu-Leu-Nle-aldehyde] (Ac-Leu-Leu-[Nle]-aldehyde)
3. CC(C)(C)OC(=O)NCC=O [BOCA, tert-Butyl N-2-oxoethylcarbamate]
4. CC(C)[C@H](NC(=O)OCc1ccccc1)C(=O)N[C@H](C=O)Cc1ccccc1 [CI-III, N-Cbz-Val-Phe-aldehyde] (Cbz-Val-Phe-aldehyde)
5. CN(C)C(=O)COC(=O)Cc1ccc(OC(=O)c2ccc(NC(=N)N)cc2)cc1
6. CN(C)C(=O)C(Cc1ccccc1)NC(=O)[C@H]1O[C@@H]1C(=O)NCCc1ccccn1 (stereo partly shown)

1: 70.3; 2: 60.4; 3: 54.7; 4: 54.5; 5: 54.6; 6: 54.8

====

- Protocol text: Cell viability assay (CellTiter-Blue)
- Conditions used: African green monkey
Peptide text beside a SMILES is read from it. * marks the point of attachment. Cbz = O=C(OCc1ccccc1)*
Could you please report measured viability at 48 h, 0.001 µM for the items listed next?
Give bare numbers, in %.

Completed entries (count: 5):
In [3]: df
Out[3]:
                                   compound  observed_result
0  CN(C)C(=O)C(Cc1ccccc1)NC(=O)[C@H]1O[C@@H]1C(=O)NCCc1ccccn1 (stereo partly drawn)               98
1  CC(C)C[C@@H](C=O)NC(=O)[C@@H](NS(=O)(=O)c1ccc(F)cc1)C(C)C             93.8
2  O=C(NCc1ccccc1)[C@H](Cc1ccccc1)NC(=O)[C@H]1O[C@@H]1C(=O)NCCc1ccc(O)cc1              101
3  CCCC(NC(=O)C(CC(C)C)NC(=O)OCc1ccccc1)C(=O)C(=O)NCc1ccccn1 (stereo not drawn)             98.3
4  CC[C@@H](C)[C@H](NS(=O)(=O)c1cccc2ccccc12)C(=O)N[C@H](C=O)Cc1c[nH]c2ccccc12               98

Now for a further compound.
What does the record list as viability at 48 h, 0.001 µM for CC(C)[C@H](NC(=O)OCc1ccccc1)C(=O)N[C@H](C=O)Cc1ccccc1 [CIII] (Cbz-Val-Phe-aldehyde) ? 94.2

====

- Tested on: SARS-CoV-2-GFP in Vero E6 cells
- Protocol text: microbe, parasite or virus in culture
- Format: cell-based
- Conditions used: Severe acute respiratory syndrome coronavirus 2, Vero C1008, 48 h, read-out: EC50 (after 48 h)
pEC50: −log10 of the molar value. Square brackets hold non-standard residues; d marks the D form. Peptide text beside a SMILES is read from it. Nle = CCCC[C@H](N)C(=O)O
The label depends only on pEC50: Satisfied if it is at least 6, Not satisfied if it is smaller.

Molecule	Label
CCCC[C@@H](C=O)NC(=O)[C@H](CC(C)C)NC(=O)[C@H](CC(C)C)NC(C)=O [MG-101, Acetyl-Leu-Leu-Nle-aldehyde] (Ac-Leu-Leu-[Nle]-aldehyde)	Satisfied
CCCC(NC(=O)C(CC(C)C)NC(=O)OCc1ccccc1)C(=O)C(=O)NCc1ccccn1 (centres unmarked)	Satisfied
CN(C)C(=O)C(Cc1ccccc1)NC(=O)[C@H]1O[C@@H]1C(=O)NCCc1ccccn1 (some centres unmarked)	Not satisfied

Kindly review the next molecule as well.
Please indicate if the recorded pEC50 for "CC[C@H](C)[C@H](NS(=O)(=O)c1cccc2ccccc12)C(=O)N[C@H](C=O)Cc1c[nH]c2ccccc12" meets or exceeds 6. Satisfied

====

- Target desc: SARS-CoV-2 Mpro (Severe acute respiratory syndrome coronavirus 2, UniProt P0DTD1)
- Type: binding
- Conditions used: 2:1 compound to protein
Could you please report measured 2:1, Tm average (Mpro) for the items listed next?
Answers are plain numbers, in °C.

Completed entries (count: 5):
Compound	Parameter	Unit abbreviation	Observed result
CC(C)C[C@H](NC(=O)[C@H]1O[C@@H]1C(=O)O)C(=O)NCCCCN=C(N)N [E-64]	2:1, Tm average (Mpro)	°C	54.4
CC[C@H](C)[C@H](NS(=O)(=O)c1cccc2ccccc12)C(=O)N[C@H](C=O)Cc1c[nH]c2ccccc12 [CLI-IV, 1-Naphthalenesulfonyl-Ile-Trp-aldehyde]	2:1, Tm average (Mpro)	°C	54.6
CC(=O)N[C@@H](CC(C)C)C(=O)N[C@@H](CC(C)C)C(=O)N[C@H](C=O)CCCNC(=N)N [Leupeptin]	2:1, Tm average (Mpro)	°C	56.2
CC(C)C[C@@H](C=O)NC(=O)[C@@H](NS(=O)(=O)c1ccc(F)cc1)C(C)C [CI-VI]	2:1, Tm average (Mpro)	°C	54.5
CCCC(NC(=O)C(CC(C)C)NC(=O)OCc1ccccc1)C(=O)C(=O)NCc1ccccn1 (stereo not drawn) [CI-XII]	2:1, Tm average (Mpro)	°C	66.7

Now for a further compound.
What does the record list as 2:1, Tm average (Mpro) for O=C(NCc1ccccc1)[C@H](Cc1ccccc1)NC(=O)[C@H]1O[C@@H]1C(=O)NCCc1ccc(O)cc1 [CAA0225] ? 53.3

====

- Protocol text: Cell viability assay (CellTiter-Blue)
- Conditions used: African green monkey
Peptide text beside a SMILES is read from it. * marks the point of attachment. Cbz = O=C(OCc1ccccc1)*
Parameter: viability at 48 h, 0.0001 µM (%)
Numbers only, in %.

Completed entries (count: 4):
                                   compound                     parameter  observed_result
0  CCCC(NC(=O)C(CC(C)C)NC(=O)OCc1ccccc1)C(=O)C(=O)NCc1ccccn1 (stereo not drawn)  viability at 48 h, 0.0001 µM             98.8
1  CC(C)C[C@@H](C=O)NC(=O)[C@@H](NS(=O)(=O)c1ccc(F)cc1)C(C)C  viability at 48 h, 0.0001 µM             96.7
2  CC[C@@H](C)[C@H](NS(=O)(=O)c1cccc2ccccc12)C(=O)N[C@H](C=O)Cc1c[nH]c2ccccc12  viability at 48 h, 0.0001 µM              101
3  CC(C)[C@H](NC(=O)OCc1ccccc1)C(=O)N[C@H](C=O)Cc1ccccc1 [CIII] (Cbz-Val-Phe-aldehyde)  viability at 48 h, 0.0001 µM             95.4

Return reported viability at 48 h, 0.0001 µM values for all items listed beneath this line.
1. O=C(NCc1ccccc1)[C@H](Cc1ccccc1)NC(=O)[C@H]1O[C@@H]1C(=O)NCCc1ccc(O)cc1
2. CN(C)C(=O)C(Cc1ccccc1)NC(=O)[C@H]1O[C@@H]1C(=O)NCCc1ccccn1 (stereo partly drawn)

103
100

====

- Target desc: CatL (Homo sapiens, UniProt P07711, T223A)
- Construct: made in house; host or cells: Komagataella pastoris strain GS115
- Sequence (P07711 114-333 T223A): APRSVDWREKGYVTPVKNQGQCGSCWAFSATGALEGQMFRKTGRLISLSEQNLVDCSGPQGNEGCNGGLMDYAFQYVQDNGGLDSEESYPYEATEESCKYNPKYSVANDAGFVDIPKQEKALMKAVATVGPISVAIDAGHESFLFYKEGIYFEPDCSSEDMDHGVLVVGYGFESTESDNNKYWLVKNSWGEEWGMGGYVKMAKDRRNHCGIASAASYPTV
- Protocol text: NanoDSF, thermal stability of CatL
- Type: binding
- Conditions used: 2:1 compound to protein
Peptide text beside a SMILES is read from it. * marks the point of attachment. Cbz = O=C(OCc1ccccc1)*
Could you please report measured 2:1, Tm average (CatL) for the items listed next?
Give bare numbers, in °C.

In [3]: df
Out[3]:
                                   molecule  unit_abbreviation  observed_result
0  CC(C)[C@H](NC(=O)OCc1ccccc1)C(=O)N[C@H](C=O)Cc1ccccc1 [CI-III, N-Cbz-Val-Phe-aldehyde] (Cbz-Val-Phe-aldehyde)                 °C             75.2
1  CCOC(=O)[C@H]1O[C@@H]1C(=O)N[C@@H](CC(C)C)C(=O)NCCC(C)C [E-64d]                 °C             67.6

Return reported 2:1, Tm average (CatL) values for all items listed beneath this line.
1. CN(C)C(=O)C(Cc1ccccc1)NC(=O)[C@H]1O[C@@H]1C(=O)NCCc1ccccn1 (stereo partly drawn) [CLIK148]
2. O=C(NCc1ccccc1)[C@H](Cc1ccccc1)NC(=O)[C@H]1O[C@@H]1C(=O)NCCc1ccc(O)cc1 [CAA0225]
3. CC(C)C[C@@H](C=O)NC(=O)[C@@H](NS(=O)(=O)c1ccc(F)cc1)C(C)C [CI-VI]
4. CC(C)C[C@H](NC(=O)[C@H]1O[C@@H]1C(=O)O)C(=O)NCCCCN=C(N)N [E-64]
5. CCCC[C@@H](C=O)NC(=O)[C@H](CC(C)C)NC(=O)OCc1ccccc1 [Calpeptin]

[76.9, 70, 78.3, 67.2, 81.8]

Return reported 2:1, Tm average (CatL) values for all items listed beneath this line.
1. CCc1ccccc1NC(=O)CSC(=O)NNC(=O)[C@H](Cc1c[nH]c2ccccc12)NC(=O)OC(C)(C)C [TC-I]
2. CC(C)(C)OC(=O)NCC=O [BOCA, tert-Butyl N-2-oxoethylcarbamate]

[81.5, 62.8]
